B1: POU domain, class 4, transcription factor 1, residues 266 to 347; numbered along this chain, Q01851 (parent)
chain: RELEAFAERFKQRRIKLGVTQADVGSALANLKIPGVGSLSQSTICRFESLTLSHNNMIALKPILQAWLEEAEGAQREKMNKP

Variants of: B1
Experiment: abundance fitness (aPCA) (normalised: wild type 0, dead -1); higher = more abundant; growth selection in yeast, the domain comes from the species named
Conditions: Homo sapiens
I'd appreciate it if you could supply abundance fitness values for the items below.
Give bare numbers.

// worked examples, abundance fitness included
Quick one: abundance fitness for RELEAFAERFKQRRIKLGVTQADVGSALANLKIPGVGSLSQSTICRFESLTLSHNNMIALKPILQAWLEEAKGAQREKMNKP [E72K] ?
-0.518

Please give the result for REGEAFAERFKQRRIKLGVTQADVGSALANLKIPGVGSLSQSTICRFESLTLSHNNMIALKPILQAWLEEAEGAQREKMNKP [L3G] too.
-0.523

// same read-out, input: RELEAFAERFKQRRIKLGVTQADVGSALANLKIPGVGSLIQSTICRFESLTLSHNNMIALKPILQAWLEEAEGAQREKMNKP [S40I]
-0.202

RELEAFAERFKQRRIKLGVTQADVGSAFANLKIPGVGSLSQSTICRFESLTLSHNNMIALKPILQAWLEEAEGAQREKMNKP [L28F] ?
-0.129

Likewise for RELEAFAERFKQRRIKLGVTQADVGSALANLKYPGVGSLSQSTICRFESLTLSHNNMIALKPILQAWLEEAEGAQREKMNKP [I33Y] ?
-0.21

Now try RFLEAFAERFKQRRIKLGVTQADVGSALANLKIPGVGSLSQSTICRFESLTLSHNNMIALKPILQAWLEEAEGAQREKMNKP [E2F] .
-0.245

# per-item lookup of abundance fitness; items listed below
1. RELEAFAERFKQRRIKLGVTQADVGSALANLKIPGVGSLSQSTICRFESLTLSHNNMIALKPILQAWLEEAEGAQREKMCKP [N80C]
2. EELEAFAERFKQRRIKLGVTQADVGSALANLKIPGVGSLSQSTICRFESLTLSHNNMIALKPILQAWLEEAEGAQREKMNKP [R1E]
3. RELEAFAERFKQRRIKLGVTQADVGSALANLKIPGVGSLSQSTICRFESLTLSHNNMIALKPILQAWLIEAEGAQREKMNKP [E69I]
4. RELEAFAERCKQRRIKLGVTQADVGSALANLKIPGVGSLSQSTICRFESLTLSHNNMIALKPILQAWLEEAEGAQREKMNKP [F10C]

1. 0.064
2. 0.007
3. 0.056
4. -0.867

# map each variant to its abundance fitness
1. RELEAFAERFKQRRIKLGVTQADVGSALANLKIPGVGSLSQSTICRFESLTLSHNNMIALKPILQAWLEPAEGAQREKMNKP [E70P]
2. RELEAFAERFKQRRIKLGVTQADVGSALANLKIPGVGSLSQSTICRFESLTLSHNNMIALKPILQAWLEEAESAQREKMNKP [G73S]
3. RELEAFAERFKQRRIKLGVTQADVGSALANLKIPGVGSLSQSTICRFESLTLSHNNMIALKPILQAWLEQAEGAQREKMNKP [E70Q]
4. RELEAFAERFKQRRIKLGVTQADVGSALANLKIPGVGSLSQSTICEFESLTLSHNNMIALKPILQAWLEEAEGAQREKMNKP [R46E]
5. RELEAFAERFKQRRIKLGVTQADVGSALANLKIPGVGSLSQSTICRFESLTLSHNNMIALKPILQAWLEEAEGAQRWKMNKP [E77W]
6. RELEAFAERFKQRRIKLGVTQADVGSALANLKIWGVGSLSQSTICRFESLTLSHNNMIALKPILQAWLEEAEGAQREKMNKP [P34W]
7. RELEAFAERFKQRRIKLGVTQADVGSALANLKIPGVGSWSQSTICRFESLTLSHNNMIALKPILQAWLEEAEGAQREKMNKP [L39W]

-0.657
-0.027
-0.015
0.055
-0.145
-0.322
-0.169

Report abundance fitness for every entry below.
1. RELEAFAERFKQRRIKLGVTQDDVGSALANLKIPGVGSLSQSTICRFESLTLSHNNMIALKPILQAWLEEAEGAQREKMNKP [A22D]
2. RELEAFAERFKQRRIKLGVTQADVGSALANLKIPGVGSLSQSTICRFESLILSHNNMIALKPILQAWLEEAEGAQREKMNKP [T51I]
3. RELEAFAERFKQRRIKLGVTQADVGSALANLKIPGVGSLSQSTICRFEWLTLSHNNMIALKPILQAWLEEAEGAQREKMNKP [S49W]
4. RELEAFAERFKQRRIKLGVTQADVGSALANLKIPGVGSLSQSTICRFESLTLSHNNMIALKSILQAWLEEAEGAQREKMNKP [P62S]
5. RELEAFAERFKQRRIKLGVTQADVGSALANLKIPGVGSLSQSTICRFESLTLSHNNMIALKPILQAWLEEAEFAQREKMNKP [G73F]

[-0.121, -0.205, -0.541, -0.243, -0.056]
